Target: PARD3_3, Q8TEW0
Sequence (Q8TEW0 582-685): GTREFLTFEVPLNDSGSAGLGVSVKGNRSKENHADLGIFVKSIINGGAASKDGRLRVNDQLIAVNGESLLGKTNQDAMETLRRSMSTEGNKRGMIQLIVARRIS
Assay: holdup assay
Set-up: key: below the threshold = too weak to quantify, mostly under pKd 3.1 to 4
Conditions: plain residues with an end cap or a label only (N-terminal biotin on a linker: ado-ado)
value.type: pKd

binder="DYSNLRETDI [ADRA1D, P25100]" value_type=pKd measured_value=3.51
binder="KSRPENGTVC [TMEM178B, H3BS89]" value_type=pKd measured_value="below the threshold"
binder="EAVTVESTSL [SLC22A11, Q9NSA0]" value_type=pKd measured_value="below the threshold"
binder="WAKEKQHTRL [SLC17A1, Q14916]" value_type=pKd measured_value="below the threshold"
binder="YAEKRMLTEV [KCNA6, P17658]" value_type=pKd measured_value="below the threshold"
binder="NTALVESEDL [PALLS, Q8WX93]" value_type=pKd measured_value=3.61
binder="TKEIPNCTSV [SORCS3, Q9UPU3]" value_type=pKd measured_value="below the threshold"
binder="KEKASTETEC [TRPM1, Q7Z4N2]" value_type=pKd measured_value="below the threshold"

Ref: paper PMC9482650
